Numbers sourced from PubChem BioAssay (NCI).

Tested on: DU-145 prostate
Assay: NCI tumour cell line growth inhibition, 48 h
Hi, to clarify the labels: Condition met covers TGI from 3 µM upward, Condition not met covers anything below 3 µM.

# molecule, measurementTarget, className
rows = [
    ("O=C(c1ccc2ccccc2c1)c1c(C(F)(F)F)n([O-])c2ccc(Cl)cc2[n+]1=O", "DU-145 prostate", "Condition not met"),
    ("C(=N\\NC1=NCCCN1)/c1ccc2ccccc2c1", "DU-145 prostate", "Condition met"),
    ("O=c1oc(-c2ccc(O)c(O)c2)cc2cccc(O)c12", "DU-145 prostate", "Condition met"),
    ("O=C(N=Nc1cc(Cl)ccc1Cl)NNc1cc(Cl)ccc1Cl", "DU-145 prostate", "Condition met"),
    ("CC1(C)[C@@H]2CC[C@@]1(C)[C@@H]1O[C@@H](O[C@@H](CN)c3cc(Cl)c(OCc4ccccc4)c(OCc4ccccc4)c3)C[C@H]21", "DU-145 prostate", "Condition not met"),
    ("C=C1CC2(OC1=O)C(=O)N(CCCN1C(=O)C3(CC(=C)C(=O)O3)c3ccccc31)c1ccccc12 (centres undefined)", "DU-145 prostate", "Condition met"),
    ("CN(C)c1ccc(C=C2N=C(c3ccccc3)N(c3cc(C(=O)c4ccccc4)ccc3N3C(=O)/C(=C/c4ccc(N(C)C)cc4)N=C3c3ccccc3)C2=O)cc1", "DU-145 prostate", "Condition met"),
    ("CN(C)Cc1cc(C(=O)/C=C/c2ccc(O)cc2)cc(CN(C)C)c1O", "DU-145 prostate", "Condition met"),
    ("CCCCCCCCCCCCCCCCCCNC(=O)[C@H]1CSC(c2cccs2)N1 (some centres undefined)", "DU-145 prostate", "Condition met"),
]
